experiment: physchem; conditions: pH 7.4, aqueous buffer, kinetic from dmso stock
Documented solubility kinetic at 1.5 h across a set of molecules

Take a look at these entries with their results.
In [3]: df
Out[3]:
                                   molecule      result
0  Cc1cccc(C(=O)N2C=C(C(=O)OC(C)C)c3[nH]c4ccccc4c3C(C)(C)C2)c1 [Example 86]  1 to 10 µM
1  CCN1CCN(C(=O)N2C=C(C(=O)OC(C)C)c3[nH]c4cc(F)ccc4c3C(C)(C)C2)CC1 [Example 36]     > 10 µM
2  CC(C)OC(=O)C1=CN(C(=O)NC2CCCNC2)CC(C)(C)c2c1[nH]c1ccccc21 (centres unmarked) [Example 56]     > 10 µM
3  CC(C)OC(=O)C1=CN(C(=O)N2CCCC(CN3CCOCC3)C2)CC(C)(C)c2c1[nH]c1ccccc21 (centres unmarked) [Example 53]     > 10 µM
4  CC(C)OC(=O)C1=CN(C(=O)N2CCN(C(C)C)CC2)CC(C)(C)c2c1[nH]c1ccccc21 [Example 30]     > 10 µM
5  CC(C)OC(=O)C1=CN(C(=O)c2cccc(OCc3ccccc3)c2)CC(C)(C)c2c1[nH]c1ccccc21 [Example 127]  1 to 10 µM
6  CCN(CC)CCN1CCN(C(=O)N2C=C(C(=O)OC(C)C)c3[nH]c4ccccc4c3C(C)(C)C2)CC1 [Example 38]     > 10 µM
7  CC(C)OC(=O)C1=CN(C(=O)N2CCC(N3CCN(C)CC3)CC2)CC(C)(C)c2c1[nH]c1ccccc21 [Example 41]     > 10 µM

Please give the measured solubility kinetic at 1.5 h for this molecule: CC(C)OC(=O)C1=CN(C(=O)N2CCOCC2)CC(C)(C)c2c1[nH]c1ccccc21 [Example 47]
> 10 µM

Endpoint output: solubility kinetic at 1.5 h of CC(C)OC(=O)C1=CN(C(=O)N2CCCC(N(C)C)C2)CC(C)(C)c2c1[nH]c1ccccc21 (centres unmarked) [Example 39] . Value?
> 10 µM

Tell me the measured solubility kinetic at 1.5 h of CCCN1CCN(C(=O)N2C=C(C(=O)OC(C)C)c3[nH]c4ccccc4c3C(C)(C)C2)CC1 [Example 31] , please.
1 to 10 µM

# lookup: solubility kinetic at 1.5 h of CC(C)OC(=O)C1=CN(C(=O)c2ccc3c(c2)OCO3)CC(C)(C)c2c1[nH]c1ccccc21 [Example 80]
1 to 10 µM

For the molecule shown here, CC(C)OC(=O)C1=CN(C(=O)c2ccccc2Br)CC(C)(C)c2c1[nH]c1ccccc21 [Example 67] , give the reported solubility kinetic at 1.5 h.
1 to 10 µM

Need solubility kinetic at 1.5 h, item CC(C)OC(=O)C1=CN(C(=O)N2CCC(N3CCCC3)CC2)CC(C)(C)c2c1[nH]c1ccccc21 [Example 28]
> 10 µM

Can you look up the measured solubility kinetic at 1.5 h of CC(C)OC(=O)C1=CN(C(=O)N2CCC[C@@H](N3CCCCC3)C2)CC(C)(C)c2c1[nH]c1ccccc21 [Example 60] for me?
> 10 µM
